Entries and their viability, T/C
Test system: 991263-137-R1-J2-PDC complex spheroid viability;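 also: spheroids exposed to compounds for 7 days before readout; 100% = DMSO vehicle control viability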
ASSAY REMARKS: Anticancer human tumor 991263-137-R1-J2-PDC patient-derived colon adenocarcinoma cell line growth inhibition [POLQ]
MEASUREMENT PARAMETERS: second compound 0.1 µM; first compound 0.01 µM; stronger effect = lower value
Quick reminder: number only, in %, skip the unit.

What does the record list as viability, T/C for C=CCn1c(=O)c2cnc(Nc3ccc(N4CCN(C)CC4)cc3)nc2n1-c1cccc(C(C)(C)O)n1 + Cc1cccc(N(C)C(=O)C2C(O)CCN2c2nc(C)cc(C(F)(F)F)c2C#N)c1 ?
110

Repeat for the following compound: CC[C@@]1(O)C(=O)OCc2c1cc1n(c2=O)Cc2cc3c(CN(C)C)c(O)ccc3nc2-1 + Nc1ccc(C#CCN(C(=O)Cc2ncc(C(F)(F)F)cc2C(F)(F)F)c2ccc(F)cc2)nn1
94.6

What about this compound? COc1cccc(OCCCN)c1-c1cc(Nc2cnc(C#N)cn2)n[nH]1 + Cc1cccc(N(C)C(=O)C2C(O)CCN2c2nc(C)cc(C(F)(F)F)c2C#N)c1
95.8

Would you kindly repeat that for CC[C@@]1(O)C(=O)OCc2c1cc1n(c2=O)Cc2cc3c(CN(C)C)c(O)ccc3nc2-1 + Cc1cccc(N(C)C(=O)C2C(O)CCN2c2nc(C)cc(C(F)(F)F)c2C#N)c1 ?
118

Follow-up entry: CCc1c2c(nc3ccc(O)cc13)-c1cc3c(c(=O)n1C2)COC(=O)[C@]3(O)CC + COC1C(OC(N)=O)C(O)C(Oc2ccc3c(O)c(NC(=O)c4ccc(O)c(CC=C(C)C)c4)c(=O)oc3c2C)OC1(C)C
88.4
